Tested on: zebrafish
Test description: Developmental neurotoxicity (DNT) assay, light/dark locomotor behavior test
Format: in vivo, Danio rerio
Test settings: Study 3; dark 1; daily 0–5 dpf, tested 6 dpf; vs 0.4% DMSO
For each record, write down the corresponding Concentration causing hyperactivity in D1 period.
Could you give me the number in µM? Just the number is fine.

Q: Request the reported Concentration causing hyperactivity in D1 period associated with `O=S(=O)(O)C(F)(F)C(F)(F)C(F)(F)C(F)(F)C(F)(F)C(F)(F)C(F)(F)C(F)(F)F`
Ans: 1.0

Q: `O=S(=O)(O)C(F)(F)C(F)(F)C(F)(F)C(F)(F)C(F)(F)C(F)(F)F` , same question.
Ans: 17.6

---

Test description: Tissue analysis (internal tissue dose of parent PFAS, bioconcentration factor)
Format: in vivo, Danio rerio
Test settings: zebrafish (Danio rerio), whole larvae (pools of 10, homogenised), other: waterborne exposure in the well medium; nominal 44.8 μM daily 0–5 dpf, 6 dpf larvae; 0.4% DMSO; dry weight 44 μg per larva; read-out: Measured tissue dose
Could you please mark 1.0 for values of concentration at 6 dpf below 100000 ng/g and 0.0 for values at or above it?

Q: Strictly below 100000 ng/g: is that where concentration at 6 dpf of O=C(O)C(F)(F)C(F)OC(F)(F)C(F)(F)C(F)(F)OC(F)(F)F (centres unmarked) [ADONA, 4,8-Dioxa-3H-perfluorononanoate] sits?
Ans: 1.0

Q: Can you handle O=S(=O)(O)C(F)(F)C(F)(F)OC(F)(C(F)(F)F)C(F)(F)OC(F)=C(F)F (centres unmarked) next?
Ans: 1.0

Q: Here is the next compound: `O=C(O)C(F)(F)C(F)(F)C(F)(F)C(F)(F)C(F)(F)F`
Ans: 1.0

Q: Would you mind doing `O=S(=O)(O)C(F)(F)C(F)(F)C(F)(F)C(F)(F)C(F)(F)C(F)(F)F` as well?
Ans: 0.0

Q: Would you kindly repeat that for `O=C(O)C(F)(F)C(F)(F)C(F)(F)C(F)(F)C(F)(F)C(F)(F)C(F)(F)F` ?
Ans: 0.0

---

Test description: Tissue analysis (internal tissue dose of parent PFAS, bioconcentration factor)
Type: in vivo, Danio rerio
Test settings: nominal 44.8 μM; 6-d zebrafish assay; 0.4% DMSO
Property label: BCFdry (L/kg)
Express it in L/kg; write the number only.

Q: I am curious: what BCFdry value has been reported for O=C(O)C(F)(F)C(F)(F)C(F)(F)C(F)(F)C(F)(F)F [PFHxA, Perfluorohexanoic acid] ?
Ans: 0.18

Q: Moving on to O=S(=O)(O)C(F)(F)C(F)(F)C(F)(F)C(F)(F)C(F)(F)C(F)(F)F [PFHxS, Perfluorohexanesulfonic acid]
Ans: 9.30

Q: Moving on to O=C(O)C(F)(F)C(F)(F)C(F)(F)C(F)(F)C(F)(F)C(F)(F)C(F)(F)F [PFOA, Perfluoro-n-octanoic acid]
Ans: 6.52

Q: Same read-out for O=C(O)C(F)(F)C(F)OC(F)(F)C(F)(F)C(F)(F)OC(F)(F)F (centres unmarked) [ADONA, 4,8-Dioxa-3H-perfluorononanoate] ?
Ans: 0.94

Q: Further, for O=S(=O)(O)C(F)(F)C(F)(F)OC(F)(C(F)(F)F)C(F)(F)OC(F)=C(F)F (centres unmarked) [PFESA1] ?
Ans: 2.62

---

Test description: Tissue analysis (internal tissue dose of parent PFAS, bioconcentration factor)
Format: in vivo, Danio rerio
Test settings: zebrafish (Danio rerio), whole larvae (pools of 10, homogenised), other: waterborne exposure in the well medium; nominal 80.0 μM daily 0–5 dpf, 6 dpf larvae; 0.4% DMSO; dry weight 44 μg per larva; read-out: Measured tissue dose
Kindly state concentration at 6 dpf for each of the entries shown.
Write the answer as a number in ng/g, unit excluded.

Q: Query: concentration at 6 dpf; subject: `O=C(O)C(F)(F)C(F)(F)C(F)(F)C(F)(F)C(F)(F)C(F)(F)C(F)(F)F`
Ans: 171000

Q: // query: O=S(=O)(O)C(F)(F)C(F)(F)OC(F)(C(F)(F)F)C(F)(F)OC(F)=C(F)F (stereo not shown)
Ans: 43200

Q: Record: O=C(O)C(F)(F)C(F)OC(F)(F)C(F)(F)C(F)(F)OC(F)(F)F (stereo not shown) [ADONA, 4,8-Dioxa-3H-perfluorononanoate]
Ans: 14900

Q: Here is the next compound: `O=C(O)C(F)(F)C(F)(F)C(F)(F)C(F)(F)C(F)(F)F`
Ans: 8770

---

Test description: Tissue analysis (internal tissue dose of parent PFAS, bioconcentration factor)
Assay type: in vivo, Danio rerio
Test settings: zebrafish (Danio rerio), whole larvae (pools of 10, homogenised), other: waterborne exposure in the well medium; nominal 25.1 μM in DI water (Study 2) daily 0–5 dpf, 6 dpf larvae; dry weight 44 μg per larva; read-out: Measured tissue dose
Property label: concentration at 6 dpf (ng/g)
Lab book: enter the figure in ng/g, no units written.

Q: Requested read-out: concentration at 6 dpf. Entry: O=C(O)C(F)(OC(F)(F)C(F)(F)C(F)(F)F)C(F)(F)F (stereo not shown) [GenX Free Acid, Perfluoro-2-propoxypropanoic acid]
Ans: 2480

---

Test description: Tissue analysis (internal tissue dose of parent PFAS, bioconcentration factor)
Assay type: in vivo, Danio rerio
Test settings: zebrafish (Danio rerio), whole larvae (pools of 10, homogenised), other: waterborne exposure in the well medium; nominal 1.0 μM daily 0–5 dpf, 6 dpf larvae; 0.4% DMSO; dry weight 44 μg per larva; read-out: Measured tissue dose
Property label: concentration at 6 dpf (ng/g)
Give the quantity in ng/g, number only.

Q: Using the record for `O=S(=O)(O)C(F)(F)C(F)(F)C(F)(F)C(F)(F)C(F)(F)C(F)(F)C(F)(F)C(F)(F)F` , report its concentration at 6 dpf.
Ans: 220000

---

So I've got a bunch of compounds here, and I need their Concentration causing hyperactivity in L2 period values.
Tested on: zebrafish
Test description: Developmental neurotoxicity (DNT) assay, light/dark locomotor behavior test
Format: in vivo, Danio rerio
Test settings: Study 3; light 2; daily 0–5 dpf, tested 6 dpf; vs 0.4% DMSO

Q: Recorded Concentration causing hyperactivity in L2 period of `O=S(=O)(O)C(F)(F)C(F)(F)C(F)(F)C(F)(F)C(F)(F)F` , please.
Ans: 3.1 to 5.5 µM

Q: Can you check `O=S(=O)(O)C(F)(F)C(F)(F)C(F)(F)C(F)(F)C(F)(F)C(F)(F)C(F)(F)F` next?
Ans: 3.1 to 5.5 µM

Q: And then `O=S(=O)(O)C(F)(F)C(F)(F)C(F)(F)C(F)(F)C(F)(F)C(F)(F)F` , what is it?
Ans: 17.6 to 31.4 µM

Q: Continue with `O=S(=O)(O)C(F)(F)C(F)(F)C(F)(F)C(F)(F)C(F)(F)C(F)(F)C(F)(F)C(F)(F)F`
Ans: 1.7 to 3.1 µM

---

Test description: Tissue analysis (internal tissue dose of parent PFAS, bioconcentration factor)
Type: in vivo, Danio rerio
Test settings: zebrafish (Danio rerio), whole larvae (pools of 10, homogenised), other: waterborne exposure in the well medium; nominal 25.1 μM daily 0–5 dpf, 6 dpf larvae; 0.4% DMSO; dry weight 44 μg per larva; read-out: Measured tissue dose
Property label: concentration at 6 dpf (ng/g)
Output spec: scalar in ng/g, unitless text.

Q: Please report the recorded concentration at 6 dpf for O=C(O)C(F)(F)C(F)(F)C(F)(F)C(F)(F)C(F)(F)F [PFHxA, Perfluorohexanoic acid] .
Ans: 4970

Q: Would you mind doing O=C(O)C(F)(F)C(F)(F)C(F)(F)C(F)(F)C(F)(F)C(F)(F)C(F)(F)F [PFOA, Perfluoro-n-octanoic acid] as well?
Ans: 116000

Q: Repeat with O=S(=O)(O)C(F)(F)C(F)(F)OC(F)(C(F)(F)F)C(F)(F)OC(F)=C(F)F (centres unmarked) [PFESA1]
Ans: 23700

Q: Can you handle O=S(=O)(O)C(F)(F)C(F)(F)C(F)(F)C(F)(F)C(F)(F)C(F)(F)F [PFHxS, Perfluorohexanesulfonic acid] next?
Ans: 129000

Q: # repeat for O=C(O)C(F)(F)C(F)OC(F)(F)C(F)(F)C(F)(F)OC(F)(F)F (centres unmarked) [ADONA, 4,8-Dioxa-3H-perfluorononanoate]
Ans: 9490

---

System: zebrafish
Test description: Developmental toxicity (DevTox) assay
Format: in vivo, Danio rerio
Test settings: Danio rerio, Study 1; 0.04–80.0 μM daily 0–5 dpf, scored 6 dpf; 0.4% DMSO; Hill fit
Property label: EC50 (µM)
Supply the numeric figure in µM, leaving out any unit text.

Q: Looking for the measured EC50 of `O=S(=O)(O)C(F)(F)C(F)(F)C(F)(F)C(F)(F)C(F)(F)C(F)(F)C(F)(F)C(F)(F)F` , can you help?
Ans: 7.5

Q: How about `O=S(=O)(O)C(F)(F)C(F)(F)C(F)(F)C(F)(F)C(F)(F)C(F)(F)F` ?
Ans: 92.7
